Listed here: compounds with reported AC50 for Cytochrome P450 1A2 (Homo sapiens, UniProt P05177).

Worked examples, 5 compounds total:
compound	tested system	AC50
O=C(CSCC(=O)OCn1nnc2ccccc2c1=O)Nc1ccc(Cl)cc1	Cytochrome P450 1A2 (Homo sapiens, UniProt P05177)	25.1 µM (inconclusive)
NCCCCCCNS(=O)(=O)c1cccc2ccccc12	Cytochrome P450 1A2 (Homo sapiens, UniProt P05177)	25.1 µM (inconclusive)
CCOC(=O)C1=C(O)/C(=C/c2cc(OC)c(OC)c(OC)c2)N=C1C	Cytochrome P450 1A2 (Homo sapiens, UniProt P05177)	14.1 µM (inconclusive)
CCCN(CCc1ccccc1)[C@H]1CCc2c(O)cccc2C1	Cytochrome P450 1A2 (Homo sapiens, UniProt P05177)	12.6 µM (inconclusive)
COCCCNC(=O)c1ccc2c(=O)n(CC3CCCO3)c(=S)[nH]c2c1 (configuration not stated)	Cytochrome P450 1A2 (Homo sapiens, UniProt P05177)	20 µM (inconclusive)

Prompt: Item `O=C1NCN(c2ccccc2)C12CCN(CCCC(c1ccc(F)cc1)c1ccc(F)cc1)CC2` with Cytochrome P450 1A2 (Homo sapiens, UniProt P05177) - AC50?
Completion: 12.6 µM (inconclusive)

Prompt: Item CCC/C=C(\CCC)C(NP(=O)(c1ccccc1)c1ccccc1)c1ccc(-c2ccccc2)cc1 (configuration not stated) with Cytochrome P450 1A2 (Homo sapiens, UniProt P05177) - AC50?
Completion: 2.51 µM (inconclusive)

Prompt: Item `O=C(/C=C/c1ccco1)Nc1ccc(Oc2ccccc2)cc1` with Cytochrome P450 1A2 (Homo sapiens, UniProt P05177) - AC50?
Completion: 20 µM (inconclusive)

Prompt: Item `Oc1nc(N2CCCCCC2)nc(N2CCCCCC2)n1` with Cytochrome P450 1A2 (Homo sapiens, UniProt P05177) - AC50?
Completion: 22.4 µM (inconclusive)

Prompt: Item `COc1ccc(NC(=O)N2CC[C@@]3(CCCN(C(=O)c4cccc(F)c4)C3)C2)cc1` with Cytochrome P450 1A2 (Homo sapiens, UniProt P05177) - AC50?
Completion: 25.1 µM (inconclusive)

Prompt: Item O=C(NCCCN1CCN(c2cccc(Cl)c2)CC1)C1CCC(=O)N1Cc1ccccc1Cl (configuration not stated) with Cytochrome P450 1A2 (Homo sapiens, UniProt P05177) - AC50?
Completion: 0.00631 µM (inconclusive)

Prompt: Item `CN(C)c1ncnc2c1ncn2CCn1cnc2c(N(C)C)ncnc21` with Cytochrome P450 1A2 (Homo sapiens, UniProt P05177) - AC50?
Completion: 6.31 µM (inconclusive)

###

tested on: Streptococcus sp. 'group A'; test: growth inhibition of control SK(-) GAS strain, dose response, counter-screen for streptokinase expression inhibitor project, luminescence, kanamycin, BacTiterGlo, confirmation (AID 1900); format: functional, organism-based
Calls of active or inactive are those of the source.
# EC50 per record follows

Worked examples, 3 compounds total:
smiles	EC50
O=C(NC12CC3CC(CC(C3)C1)C2)c1ccc(-c2ccc(Br)cc2)o1	4.59 µM (active)
O=C1C(Nc2ccc(O)cc2)=C/C(=N/S(=O)(=O)c2cccs2)c2ccccc21	1.68 µM (active)
C/C(=N\NC(=O)c1ccccc1N)c1ccc(NC(=O)Cc2ccccc2)cc1	3.07 µM (active)

Attention now shifts to the item below.
Prompt: Entry `Cc1nc(N2CCN(Cc3ccc4c(c3)OCO4)CC2)c2cc(-c3ccccc3)sc2n1` has what EC50?
Completion: 19.3 µM (active)

###

target: Heat shock factor protein 1 (Mus musculus, UniProt P38532); experiment: HSF1 potentiators in luciferase reporter cells, confirmation, cell-based, NIH3T3, luminescence, dose retest (AID 435004); format: functional;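 also: stress induced by proteasome inhibitor MG132 added 30 min after compound; luciferase reporter driven by HSF1 response element in NIH3T3 cells; actives raise luminescence as potentiators of the MG132 stress response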
Sequence (P38532 whole entry): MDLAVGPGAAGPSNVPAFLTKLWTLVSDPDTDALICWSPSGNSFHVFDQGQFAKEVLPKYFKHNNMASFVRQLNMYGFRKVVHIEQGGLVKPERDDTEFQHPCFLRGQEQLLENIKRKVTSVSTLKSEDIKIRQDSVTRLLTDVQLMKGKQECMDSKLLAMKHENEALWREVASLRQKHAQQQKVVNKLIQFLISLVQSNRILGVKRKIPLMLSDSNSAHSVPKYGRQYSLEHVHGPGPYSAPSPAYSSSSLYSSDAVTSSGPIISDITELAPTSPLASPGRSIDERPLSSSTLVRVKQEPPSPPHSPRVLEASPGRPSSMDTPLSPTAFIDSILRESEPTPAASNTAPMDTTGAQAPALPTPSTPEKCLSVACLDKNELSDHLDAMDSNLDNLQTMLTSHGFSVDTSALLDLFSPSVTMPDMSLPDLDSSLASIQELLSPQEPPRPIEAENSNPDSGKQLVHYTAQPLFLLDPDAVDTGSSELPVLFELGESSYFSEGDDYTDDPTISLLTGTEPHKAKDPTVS
Activity calls are given as the source filed them.
# EC50 per record follows

Worked examples, 10 compounds total:
compound	EC50
O=C(CN(C(=O)c1ccccc1Cl)C1CCCCC1)Nc1ccc(Cl)c([N+](=O)[O-])c1	> 260 µM (inactive)
COc1cc(C(=O)NCC2CCCO2)ccc1OCc1ccc(Cl)cc1Cl (centres undefined)	104 µM (active)
Cc1ccccc1OCCCC(=O)Nc1ccccc1C(F)(F)F	> 260 µM (inactive)
CC1(C)CC(=O)C2=C(C1)OC(N)=C(C#N)C2C#Cc1ccccc1 (centres undefined)	38.3 µM (active)
CC(C)(C)c1[nH]ncc1[N+](=O)[O-]	> 260 µM (inactive)
CCCC(=O)Nc1cc(-c2nn(C)c(=O)c3ccccc23)ccc1OC	> 260 µM (inactive)
COc1ccc(C2C(C(C)=O)=C(O)C(=O)N2c2ccc(C)cc2)cc1 (centres undefined)	> 260 µM (inactive)
COc1ccc2c(c1OC)C(=O)OC2Nc1nc(-c2ccccc2)cs1 (centres undefined)	13.6 µM (active)
COc1cccc(-c2c(C#N)c(N)nc3c2c(C)nn3-c2ccccc2)c1O	57.9 µM (active)
Oc1cc(-c2ccccc2)c2ccccc2c1	40.1 µM (active)

Prompt: Entry `O=C(O)CSc1nc2ccccc2nc1Cc1ccccc1F` has what EC50?
Completion: > 260 µM (inactive)

Prompt: Entry `CC1(C)CC(=O)C(/C=N/c2cccnc2)=C(O)C1` has what EC50?
Completion: 16.6 µM (active)

Prompt: Entry CC(Oc1ccc(Cl)cc1Cl)C(=O)NCCCCc1ccccc1 (centres undefined) has what EC50?
Completion: > 260 µM (inactive)

Prompt: Entry `Cc1ccc(C)c(S(=O)(=O)N2CCN(CC(=O)Nc3cc(C)on3)CC2)c1` has what EC50?
Completion: > 260 µM (inactive)

###

target: Protein RecA (Mycobacterium tuberculosis, UniProt P9WHJ3); test: Fluorescence Cell-Free Homogeneous Dose Retest to Identify Inhibitors of RecA-Intein Splicing Activity. [Related pubchem assays (depositor defined):AID2097, AID2223, AID489010, AID492950]; type: functional
Active and inactive are the calls of the source.
value kind: EC50

Worked examples, 10 compounds total:
compound	EC50
N#CC1=C(N)Oc2[nH]nc(-c3ccccc3)c2C1c1ccncc1 (stereo not drawn)	3.12 µM (active)
O=C1C(Nc2ccc(O)cc2)=C/C(=N/S(=O)(=O)c2cccs2)c2ccccc21	0.123 µM (active)
C=CCN1C(=O)NC(c2ccc(OC)cc2)(C(F)(F)F)S/C1=C(\C#N)c1nnc(N2CCOCC2)n1-c1ccccc1 (stereo not drawn)	9.73 µM (active)
CCc1nnc(NS(=O)(=O)c2ccc(NC(=S)NC(=O)/C=C/c3ccc(C(C)C)cc3)cc2)s1	33.4 µM (active)
Cn1c2c(c(=O)n(C)c1=O)[C@@]1(C(=O)Nc3ccccc31)C(C#N)=C(N)O2	17.5 µM (active)
O=C(c1ccncc1)N(c1ccc2oc3c(c2c1)CCCC3)S(=O)(=O)c1ccc(F)cc1	6.22 µM (active)
COc1ccc(NC(=O)/C(Cl)=C(/Cl)S(=O)(=O)Cc2ccc(C)cc2)cn1	2.71 µM (active)
Oc1cc(-c2ccc(C3CCCCC3)cc2)[nH]n1	1.01 µM (active)
COC(=O)C(O)(c1c(C)[nH]n(-c2ccccc2)c1=O)C(F)(F)F (stereo not drawn)	3.74 µM (active)
O=C(CCl)c1ccc(Cc2ncc(C(F)(F)F)cc2Cl)s1	1.69 µM (active)

Prompt: Item `Cc1cc(Nc2ccccc2)c2c([N+](=O)[O-])ccc(C)c2n1` with Protein RecA (Mycobacterium tuberculosis, UniProt P9WHJ3) - EC50?
Completion: 0.551 µM (active)

Prompt: Item `O=C(NC(=S)NNC(=O)c1ccccc1O)c1ccco1` with Protein RecA (Mycobacterium tuberculosis, UniProt P9WHJ3) - EC50?
Completion: 114 µM (inconclusive)

Prompt: Item `O=C1NCN(c2ccccc2)C12CCN(CCCC(c1ccc(F)cc1)c1ccc(F)cc1)CC2` with Protein RecA (Mycobacterium tuberculosis, UniProt P9WHJ3) - EC50?
Completion: 20.2 µM (active)

###

Biological target: Replicative DNA helicase DnaB (Mycobacterium tuberculosis)
Sequence (P9WMR3 whole entry): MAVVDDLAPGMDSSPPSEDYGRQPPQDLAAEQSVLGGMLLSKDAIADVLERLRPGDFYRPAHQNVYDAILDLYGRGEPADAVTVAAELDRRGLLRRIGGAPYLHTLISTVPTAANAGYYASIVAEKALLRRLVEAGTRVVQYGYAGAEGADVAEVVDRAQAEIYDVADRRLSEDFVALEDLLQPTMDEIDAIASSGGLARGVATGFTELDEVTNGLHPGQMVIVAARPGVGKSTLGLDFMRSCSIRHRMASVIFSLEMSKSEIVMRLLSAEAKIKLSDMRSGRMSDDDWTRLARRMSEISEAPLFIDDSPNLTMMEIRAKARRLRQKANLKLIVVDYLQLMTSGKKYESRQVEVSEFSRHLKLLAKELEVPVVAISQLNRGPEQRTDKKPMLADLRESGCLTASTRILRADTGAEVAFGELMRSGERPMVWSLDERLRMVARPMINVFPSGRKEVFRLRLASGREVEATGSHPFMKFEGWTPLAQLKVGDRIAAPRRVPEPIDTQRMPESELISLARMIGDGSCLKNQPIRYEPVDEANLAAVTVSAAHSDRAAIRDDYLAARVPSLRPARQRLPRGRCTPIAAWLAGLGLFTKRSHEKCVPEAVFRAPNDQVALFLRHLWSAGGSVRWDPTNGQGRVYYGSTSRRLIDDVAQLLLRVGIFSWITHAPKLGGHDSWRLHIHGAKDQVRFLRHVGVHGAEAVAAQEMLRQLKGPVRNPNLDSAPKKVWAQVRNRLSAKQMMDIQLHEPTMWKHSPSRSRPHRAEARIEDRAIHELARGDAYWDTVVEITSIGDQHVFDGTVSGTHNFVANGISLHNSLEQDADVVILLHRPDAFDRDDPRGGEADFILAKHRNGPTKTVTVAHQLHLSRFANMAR
Assay: DnaB intein splicing inhibitors, dose response, biochemical, cell-free fluorescence (AID 449749)
Assay type: functional
Calls of active or inactive are those of the source.
# AC50 per record follows

compound	result
Oc1cc(-c2ccc(C3CCCCC3)cc2)[nH]n1	1.99 µM (active)
O=C(NC(=S)NNC(=O)c1ccccc1O)c1ccco1	95.2 µM (active)
CCc1nnc(NS(=O)(=O)c2ccc(NC(=S)NC(=O)/C=C/c3ccc(C(C)C)cc3)cc2)s1	3.15 µM (active)
COc1ccc(S(=O)(=O)Nc2cc(SCC(=O)O)c(O)c3ccccc23)cc1	0.885 µM (active)

Prompt: Item COC(=O)C(O)(c1c(C)[nH]n(-c2ccccc2)c1=O)C(F)(F)F (stereo not given) with Replicative DNA helicase DnaB (Mycobacterium tuberculosis) - AC50?
Completion: < 0.018 µM (active)

Prompt: Item `Cc1cc(Nc2ccccc2)c2c([N+](=O)[O-])ccc(C)c2n1` with Replicative DNA helicase DnaB (Mycobacterium tuberculosis) - AC50?
Completion: > 380 µM (inactive)

Prompt: Item `O=C(CCl)c1ccc(Cc2ncc(C(F)(F)F)cc2Cl)s1` with Replicative DNA helicase DnaB (Mycobacterium tuberculosis) - AC50?
Completion: 3.57 µM (active)
